Please respond with reported melting point for every item in the list.

Recorded melting point of C(#Cc1ccncc1)CCNc1ncnc2sccc12 [compound 57] , please.
140 to 141 °C

What about Clc1cc(NCCC#Cc2ccccc2)ncn1 [compound 358] ?
118 to 120 °C

Please give the result for Clc1cccc(Cl)c1C#CCCNc1ncnc2ccccc12 [compound 174] too.
153 to 155 °C

Another compound: C(#Cc1csc(-c2ccccc2)n1)CCNc1ncnc2sccc12 [compound 76]
134 to 136 °C

Moving on to Cc1cc(C)nc(C#CCCNc2ncnc3sccc23)n1 [compound 59]
112 to 113 °C

Another: CSc1cccc(C#CCCNc2ncnc3ccccc23)c1 [compound 116]
141 to 142 °C

Can you handle CCOc1ccccc1C#CCCNc1ncnc2ccccc12 [compound 118] next?
119 to 120 °C

Do the same for COc1cccc(Oc2nc(C#CCCNc3ncnc4ccccc34)cs2)c1 [compound 216] please
77 to 79 °C

Try this compound next: Fc1cccc(F)c1C#CCCNc1ncnc2sccc12 [compound 42]
179 to 181 °C

Now give it for FC(F)(F)c1ccc(Oc2nc(C#CCCNc3ncnc4ccccc34)cs2)cc1 [compound 220] too.
137 to 139 °C

Repeat for the following compound: Fc1ccc(C#CCCNc2ncnc3ccccc23)cc1F [compound 166]
161 to 162 °C

What about CC(=O)OCc1nc(C#CCCNc2ncnc3sccc23)cs1 [compound 73] ?
128 to 129 °C

Record: C(#Cc1cncs1)CCNc1ncnc2sccc12 [compound 61]
156 to 158 °C

Now this one: Fc1cccc(Oc2nc(C#CCCNc3ncnc4ccccc34)cs2)c1 [compound 225]
134 to 136 °C

Another compound: OCc1nc(C#CCCNc2ncnc3sccc23)cs1 [compound 70]
193 °C

Fc1cc(C#CCCNc2ncnc3sccc23)cc(F)c1F [compound 43] , same question.
158 to 159 °C

Repeat for the following compound: C=C(C)CCc1ccccc1C#CCCNc1ncnc2ccccc12 [compound 105]
92 to 94 °C

FC(F)(F)c1cccc(C#CCCNc2ncnc3sccc23)c1 [compound 26] ?
123 to 125 °C

Could you do the same for Clc1ncccc1C#CCCNc1ncnc2ccccc12 [compound 195] , please?
168 to 170 °C

Also Fc1cncc(C#CCCNc2ncnc3ccccc23)c1 [compound 193] , if possible.
145 to 150 °C

What about this compound? COCc1ccccc1C#CCCNc1ncnc2ccc(I)cc12 [compound 322]
121 to 123 °C

----------
What melting point was measured for each of the following?

What does the record list as melting point for Clc1ccc(Cl)c(C#CCCNc2ncnc3ccccc23)c1 ?
176 to 177 °C

Would you mind doing C=C(C#CCCNc1ncnc2ccccc12)CO as well?
139 °C

Can you handle Cc1nc(C#CCCNc2ncnc3sccc23)cs1 next?
160 to 161 °C

// next record O=[N+]([O-])c1cccc(C#CCCNc2ncnc3sccc23)c1
171 to 172 °C

Please do the same for C(#Cc1ccccc1)CCNc1ncnc2[nH]cnc12 as well.
207 to 208 °C

Fc1cc(Cl)ccc1C#CCCNc1ncnc2ccccc12 ?
198 to 199 °C

Let us now turn to OCc1cccc(C#CCCNc2ncnc3ccccc23)c1
113 to 115 °C

Could you do the same for Clc1ncnc(NCCC#Cc2ccccc2)c1Cc1ccccc1 , please?
157 to 158 °C

And Clc1cccc(C#CCCNc2ncnc3ccccc23)c1Cl ?
175 to 176 °C

Thanks! And Cc1cccc(C#CCCNc2ncnc3sccc23)c1 ?
120 to 123 °C

Try this molecule too: OCc1cc(C#CCCNc2ncnc3ccccc23)co1
135 to 147 °C

Then C(#Cc1csc(-c2ccoc2)n1)CCNc1ncnc2sccc12 ?
140 to 142 °C

Please answer likewise for FC(F)(F)c1cc(C#CCCNc2ncnc3sccc23)cc(C(F)(F)F)c1
163 to 166 °C

Same thing, different molecule: Fc1ccc(C#CCCNc2ncnc3sccc23)c(F)c1
177 to 178 °C

And Clc1ccc(C#CCCNc2ncnc3ccccc23)cc1Cl ?
147 to 148 °C

Can you check OCc1ccc(C#CCCNc2ncnc3ccccc23)cn1 next?
183 to 185 °C

Now give it for OC(c1ccccc1C#CCCNc1ncnc2ccccc12)C(F)(F)F (stereo not drawn) too.
183 to 187 °C

Next: CS(=O)(=O)c1ccc(C#CCCNc2ncnc3ccccc23)cc1
164 to 165 °C

Input FC(F)(F)c1ccc(Cl)c(C#CCCNc2ncnc3ccccc23)c1
144 to 145 °C

And the next one, C(#Cc1nccs1)CCNc1ncnc2sccc12 ?
128 to 129 °C

Now the same for N#Cc1c(F)cccc1C#CCCNc1ncnc2ccccc12
163 to 164 °C

----------
Can you tell me melting point for the items I'm about to list?

Which melting point reading was recorded for the compound N#Cc1ccc(Oc2nc(C#CCCNc3ncnc4ccccc34)cs2)cc1 [compound 223] ?
55 to 57 °C

What about this compound? CC(CC#Cc1cscn1)Nc1ncnc2ccccc12 (centres unmarked) [compound 291]
142 to 145 °C

Input C(#Cc1ccc(OC2CCCCO2)cc1)CCNc1ncnc2ccccc12 (centres unmarked) [compound 156]
163 to 165 °C

Same for O=[N+]([O-])c1ccc(C#CCCNc2ncnc3sccc23)cc1 [compound 40]
184 to 185 °C

Same question, C(#Cc1cccnc1)CCNc1ncnc2sccc12 [compound 56] this time
138 to 140 °C
